Source: ChEMBL document CHEMBL4823296

Field: -TdeltaS. Provide a value for each of the compounds that follow.
Biological target: Ephrin type-A receptor 4 (Homo sapiens, UniProt P54764)
Sequence (P54764 whole entry): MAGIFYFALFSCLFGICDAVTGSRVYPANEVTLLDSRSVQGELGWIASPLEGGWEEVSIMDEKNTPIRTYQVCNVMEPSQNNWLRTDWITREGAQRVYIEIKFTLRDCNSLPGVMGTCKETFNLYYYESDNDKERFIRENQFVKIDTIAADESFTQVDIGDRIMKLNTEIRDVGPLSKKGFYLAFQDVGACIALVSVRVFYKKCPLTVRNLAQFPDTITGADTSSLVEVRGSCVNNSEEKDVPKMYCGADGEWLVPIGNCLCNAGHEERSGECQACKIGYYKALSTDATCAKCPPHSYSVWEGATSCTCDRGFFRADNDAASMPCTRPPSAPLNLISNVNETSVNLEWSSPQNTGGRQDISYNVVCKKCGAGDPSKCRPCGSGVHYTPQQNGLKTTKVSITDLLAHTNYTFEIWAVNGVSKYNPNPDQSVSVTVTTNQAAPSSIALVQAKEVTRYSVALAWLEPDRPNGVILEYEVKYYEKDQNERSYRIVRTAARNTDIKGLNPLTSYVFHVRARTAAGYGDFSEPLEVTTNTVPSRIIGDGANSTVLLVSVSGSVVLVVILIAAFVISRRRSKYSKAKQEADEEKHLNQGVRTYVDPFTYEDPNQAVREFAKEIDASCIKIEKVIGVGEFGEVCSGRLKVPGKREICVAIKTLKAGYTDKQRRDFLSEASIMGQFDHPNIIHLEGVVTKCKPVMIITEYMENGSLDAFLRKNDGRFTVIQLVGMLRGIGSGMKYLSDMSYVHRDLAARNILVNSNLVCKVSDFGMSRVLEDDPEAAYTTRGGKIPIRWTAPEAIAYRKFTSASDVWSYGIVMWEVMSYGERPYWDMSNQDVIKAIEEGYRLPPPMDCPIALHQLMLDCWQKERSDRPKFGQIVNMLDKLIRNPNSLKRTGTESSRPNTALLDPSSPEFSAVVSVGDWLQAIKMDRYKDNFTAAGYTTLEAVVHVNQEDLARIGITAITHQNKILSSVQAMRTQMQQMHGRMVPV
Non-standard residues stand in square brackets, D forms with d. Residues, ends and D or L forms follow the SMILES beside them. *: point of attachment. Trp(5-OH) = N[C@@H](Cc1c[nH]c2ccc(O)cc12)C(=O)O; Bip = N[C@@H](Cc1ccc(-c2ccccc2)cc1)C(=O)O; hArg = N=C(N)NCCCC[C@H](N)C(=O)O; GABA = NCCCC(=O)O; X1 = Oc1ccccc1CN*; X2 = Oc1ccccc1N*
Numbers only, in kcal/mol.

Need -TdeltaS for each of these compounds.
1. N=C(N)NCCCC[C@H](NC(=O)[C@H](Cc1ccc(-c2ccccc2)cc1)NC(=O)[C@H](Cc1c[nH]c2ccc(O)cc12)NC(=O)[C@@H]1CC[C@@H](N)C1)C(N)=O
2. N=C(N)NCCCC[C@H](NC(=O)[C@H](Cc1ccc(-c2ccccc2)cc1)NC(=O)[C@H](Cc1c[nH]c2ccccc12)NC(=O)CCN)C(N)=O (HELM PEPTIDE1{[bAla].W.[O=C([C@H](Cc1ccc(-c2ccccc2)cc1)N[*:1])[*:2]].[N=C(N)NCCCC[C@H](N[*:1])C(=O)[*:2]].[am]}$$$$V2.0)
3. N=C(N)NCCCC[C@H](NC(=O)[C@H](Cc1ccc(-c2ccccc2)cc1)NC(=O)[C@H](Cc1c[nH]c2ccc(O)cc12)NC(=O)CCCN)C(=O)NCC(=O)NCc1ccccc1O (H-[GABA][Trp(5-OH)][Bip][hArg]G-X1)
4. N=C(N)NCCCC[C@H](NC(=O)[C@H](Cc1ccc(-c2ccccc2)cc1)NC(=O)[C@H](Cc1c[nH]c2ccc(O)cc12)NC(=O)[C@@H]1CCC[C@@H](N)C1)C(N)=O
5. N=C(N)NCCCC[C@H](NC(=O)[C@H](Cc1ccc(-c2ccccc2)cc1)NC(=O)[C@H](Cc1c[nH]c2ccc(O)cc12)NC(=O)CCCN)C(=O)NCC(=O)Nc1ccccc1O (H-[GABA][Trp(5-OH)][Bip][hArg]G-X2)
6. Cc1ccc(-c2ccc(C[C@H](NC(=O)[C@H](Cc3c[nH]c4ccc(O)cc34)NC(=O)CCCN)C(=O)N[C@@H](CCCCNC(=N)N)C(N)=O)cc2)cc1

1.46
3.77
3
1.32
2.88
1.77

----------
Let's go through some recorded deltaH values for Ephrin type-A receptor 4 (Homo sapiens, UniProt P54764) together.
Non-standard residues stand in square brackets, D forms with d. Residues, ends and D or L forms follow the SMILES beside them. *: point of attachment. Trp(5-OH) = N[C@@H](Cc1c[nH]c2ccc(O)cc12)C(=O)O; NHPh(4-CH2-morpholino) = c1cc(N*)ccc1CN1CCOCC1; NH(4-morpholinophenyl) = c1cc(N2CCOCC2)ccc1N*; Bip = N[C@@H](Cc1ccc(-c2ccccc2)cc1)C(=O)O; d(hArg) = N=C(N)NCCCC[C@@H](N)C(=O)O; hArg = N=C(N)NCCCC[C@H](N)C(=O)O; X4 = COc1cc(CN*)cc(OC)c1; GABA = NCCCC(=O)O
Answers are plain numbers, in kcal/mol.

Example compounds with recorded deltaH:
[
  {
    "COMPOUND": "COc1cc(CNC(=O)CNC(=O)[C@H](CCCCNC(=N)N)NC(=O)[C@H](Cc2ccc(-c3ccccc3)cc2)NC(=O)[C@H](Cc2c[nH]c3ccc(O)cc23)NC(=O)CCCN)cc(OC)c1 (H-[GABA][Trp(5-OH)][Bip][hArg]G-X4)",
    "MEASURE_UNIT": "kcal/mol",
    "MEASUREMENT": -11.3
  },
  {
    "COMPOUND": "N=C(N)NCCCC[C@H](NC(=O)[C@H](Cc1ccc(-c2ccccc2)cc1)NC(=O)[C@H](Cc1c[nH]c2ccc(O)cc12)NC(=O)CCCN)C(=O)NCC(=O)Nc1ccc(N2CCOCC2)cc1 (H-[GABA][Trp(5-OH)][Bip][hArg]G-{NH(4-morpholinophenyl)})",
    "MEASURE_UNIT": "kcal/mol",
    "MEASUREMENT": -11.2
  },
  {
    "COMPOUND": "N=C(N)NCCCC[C@H](NC(=O)[C@H](Cc1ccc(-c2ccccc2)cc1)NC(=O)[C@H](Cc1c[nH]c2ccc(O)cc12)NC(=O)CCCN)C(=O)NCC(=O)Nc1ccc(CN2CCOCC2)cc1 (H-[GABA][Trp(5-OH)][Bip][hArg]G-{NHPh(4-CH2-morpholino)})",
    "MEASURE_UNIT": "kcal/mol",
    "MEASUREMENT": -10.6
  }
]

Value of deltaH reported for the compound N=C(N)NCCCC[C@@H](NC(=O)[C@H](Cc1ccc(-c2ccccc2)cc1)NC(=O)[C@H](Cc1c[nH]c2ccccc12)NC(=O)CCCN)C(N)=O (H-[GABA]W[Bip][d(hArg)]-NH2) is -9.26

----------
Non-standard residues stand in square brackets, D forms with d. Residues, ends and D or L forms follow the SMILES beside them. *: point of attachment. Phe(4-guanidino) = N=C(N)Nc1ccc(C[C@H](N)C(=O)O)cc1; Trp(5-OH) = N[C@@H](Cc1c[nH]c2ccc(O)cc12)C(=O)O; Trp(7-aza) = N[C@@H](Cc1c[nH]c2ncccc12)C(=O)O; Bip = N[C@@H](Cc1ccc(-c2ccccc2)cc1)C(=O)O; 1Nal = N[C@@H](Cc1cccc2ccccc12)C(=O)O; 2Nal = N[C@@H](Cc1ccc2ccccc2c1)C(=O)O; d(hArg) = N=C(N)NCCCC[C@@H](N)C(=O)O; hArg = N=C(N)NCCCC[C@H](N)C(=O)O; X4 = COc1cc(CN*)cc(OC)c1; GABA = NCCCC(=O)O
Let's go through some recorded log10 -TdeltaS values for Ephrin type-A receptor 4 (Homo sapiens) together.
Quick note: numbers are log10 of -TdeltaS, with kcal/mol as the unit.

Example compounds with recorded log10 -TdeltaS:
[
  {
    "COMPOUND": "N=C(N)NCCCC[C@@H](NC(=O)[C@H](Cc1ccc(-c2ccccc2)cc1)NC(=O)[C@H](Cc1c[nH]c2ccccc12)NC(=O)CCCN)C(N)=O (H-[GABA]W[Bip][d(hArg)]-NH2)",
    "log10 -TdeltaS": -0.52
  },
  {
    "COMPOUND": "N=C(N)NCCCC[C@H](NC(=O)[C@H](Cc1ccc2ccccc2c1)NC(=O)[C@H](Cc1c[nH]c2ccc(O)cc12)NC(=O)CCCN)C(N)=O (H-[GABA][Trp(5-OH)][2Nal][hArg]-NH2)",
    "log10 -TdeltaS": 0.10
  },
  {
    "COMPOUND": "Cc1ccccc1-c1ccc(C[C@H](NC(=O)[C@H](Cc2c[nH]c3ccc(O)cc23)NC(=O)CCCN)C(=O)N[C@@H](CCCCNC(=N)N)C(N)=O)cc1",
    "log10 -TdeltaS": 0.52
  },
  {
    "COMPOUND": "N=C(N)Nc1ccc(C[C@H](NC(=O)[C@H](Cc2ccc(-c3ccccc3)cc2)NC(=O)[C@H](Cc2c[nH]c3ccccc23)NC(=O)CCCN)C(N)=O)cc1 (H-[GABA]W[Bip][Phe(4-guanidino)]-NH2)",
    "log10 -TdeltaS": 0.12
  },
  {
    "COMPOUND": "N=C(N)NCCCC[C@H](NC(=O)[C@H](Cc1cccc2ccccc12)NC(=O)[C@H](Cc1c[nH]c2ccc(O)cc12)NC(=O)CCCN)C(N)=O (H-[GABA][Trp(5-OH)][1Nal][hArg]-NH2)",
    "log10 -TdeltaS": 0.16
  },
  {
    "COMPOUND": "COc1cc(CNC(=O)CNC(=O)[C@H](CCCCNC(=N)N)NC(=O)[C@H](Cc2ccc(-c3ccccc3)cc2)NC(=O)[C@H](Cc2c[nH]c3ccc(O)cc23)NC(=O)CCCN)cc(OC)c1 (H-[GABA][Trp(5-OH)][Bip][hArg]G-X4)",
    "log10 -TdeltaS": 0.38
  }
]

Please look at the following compound next.
Value of log10 -TdeltaS reported for the compound N=C(N)NCCCC[C@H](NC(=O)[C@H](Cc1ccc(-c2ccccc2)cc1)NC(=O)[C@H](Cc1c[nH]c2ncccc12)NC(=O)CCCN)C(N)=O (H-[GABA][Trp(7-aza)][Bip][hArg]-NH2) is -0.13

----------
Target: Ephrin type-A receptor 4 (Homo sapiens, UniProt P54764)
Non-standard residues stand in square brackets, D forms with d. Residues, ends and D or L forms follow the SMILES beside them. *: point of attachment. Phe(4-guanidino) = N=C(N)Nc1ccc(C[C@H](N)C(=O)O)cc1; Trp(5-OH) = N[C@@H](Cc1c[nH]c2ccc(O)cc12)C(=O)O; Bip = N[C@@H](Cc1ccc(-c2ccccc2)cc1)C(=O)O; 2Nal = N[C@@H](Cc1ccc2ccccc2c1)C(=O)O; hArg = N=C(N)NCCCC[C@H](N)C(=O)O; GABA = NCCCC(=O)O; X1 = Oc1ccccc1CN*; X2 = Oc1ccccc1N*; X3 = Oc1cccnc1N*
OBSERVED_PROPERTY: deltaH (kcal/mol)
Answers are plain numbers, in kcal/mol.

Example compounds with recorded deltaH:
[
  {
    "COMPOUND": "N=C(N)Nc1ccc(C[C@H](NC(=O)[C@H](Cc2ccc(-c3ccccc3)cc2)NC(=O)[C@H](Cc2c[nH]c3ccccc23)NC(=O)CCCN)C(N)=O)cc1 (H-[GABA]W[Bip][Phe(4-guanidino)]-NH2)",
    "OBSERVED_PROPERTY": "deltaH",
    "MEASURE_UNIT": "kcal/mol",
    "MEASUREMENT": -9.43
  },
  {
    "COMPOUND": "N=C(N)NCCCC[C@H](NC(=O)[C@H](Cc1ccc(-c2ccccc2)cc1)NC(=O)[C@H](Cc1c[nH]c2ccccc12)NC(=O)CCN)C(N)=O (HELM PEPTIDE1{[bAla].W.[O=C([C@H](Cc1ccc(-c2ccccc2)cc1)N[*:1])[*:2]].[N=C(N)NCCCC[C@H](N[*:1])C(=O)[*:2]].[am]}$$$$V2.0)",
    "OBSERVED_PROPERTY": "deltaH",
    "MEASURE_UNIT": "kcal/mol",
    "MEASUREMENT": -11.5
  },
  {
    "COMPOUND": "N=C(N)NCCCC[C@H](NC(=O)[C@H](Cc1ccc(-c2ccccc2)cc1)NC(=O)[C@H](Cc1c[nH]c2ccc(O)cc12)NC(=O)CCCN)C(=O)NCC(=O)NCc1ccccc1O (H-[GABA][Trp(5-OH)][Bip][hArg]G-X1)",
    "OBSERVED_PROPERTY": "deltaH",
    "MEASURE_UNIT": "kcal/mol",
    "MEASUREMENT": -12
  },
  {
    "COMPOUND": "N=C(N)NCCCC[C@H](NC(=O)[C@H](Cc1ccc2ccccc2c1)NC(=O)[C@H](Cc1c[nH]c2ccc(O)cc12)NC(=O)CCCN)C(N)=O (H-[GABA][Trp(5-OH)][2Nal][hArg]-NH2)",
    "OBSERVED_PROPERTY": "deltaH",
    "MEASURE_UNIT": "kcal/mol",
    "MEASUREMENT": -8.49
  }
]

Need deltaH for each of these compounds.
1. NCCCC[C@H](NC(=O)[C@H](Cc1ccc(-c2ccccc2)cc1)NC(=O)[C@H](Cc1c[nH]c2ccc(O)cc12)NC(=O)CCCN)C(N)=O (H-[GABA][Trp(5-OH)][Bip]K-NH2)
2. N=C(N)NCCCC[C@H](NC(=O)[C@H](Cc1ccc(-c2ccccc2)cc1)NC(=O)[C@H](Cc1c[nH]c2ccc(O)cc12)NC(=O)CCCN)C(=O)NCC(=O)Nc1ccccc1O (H-[GABA][Trp(5-OH)][Bip][hArg]G-X2)
3. C[C@H](N)C(=O)N[C@@H](Cc1c[nH]c2ccccc12)C(=O)N[C@@H](Cc1ccc(-c2ccccc2)cc1)C(=O)N[C@@H](CCCCNC(=N)N)C(N)=O (HELM PEPTIDE1{A.W.[O=C([C@H](Cc1ccc(-c2ccccc2)cc1)N[*:1])[*:2]].[N=C(N)NCCCC[C@H](N[*:1])C(=O)[*:2]].[am]}$$$$V2.0)
4. N=C(N)NCCCC[C@H](NC(=O)[C@H](Cc1ccc(-c2ccccc2)cc1)NC(=O)[C@H](Cc1c[nH]c2ccc(O)cc12)NC(=O)CCCN)C(=O)NCC(=O)Nc1ncccc1O (H-[GABA][Trp(5-OH)][Bip][hArg]G-X3)

1: -11.2; 2: -12; 3: -9.54; 4: -9.48
